From: ChEMBL document CHEMBL2331151

assay.procedure: AUC (0 to 24 hrs) in Sprague-Dawley rat at 1 mg/kg, po
Format: ADME, organism-based
Design: time < 24 hr, dose 1 mg/kg, route oral
condition.parameters: plasma
recorded.metric: AUC(0-t) at 24 h
Respond with a number, then the unit of measure.

# input Given the molecule "O=S(=O)(Nc1cc(Cl)c(Oc2cnc3ccccc3c2)c(Cl)c1)c1ccc(Cl)cc1Cl" , what is its reported AUC(0-t) at 24 h?
# output 5.1 µM·h

====

assay.procedure: Cmax in Sprague-Dawley rat at 30 mg/kg, po
Format: ADME, organism-based
Parameters: dose 30 mg/kg, route oral
condition.parameters: in vivo
recorded.metric: Cmax (µM)
Numbers only, in µM.

# input Give the measured Cmax of O=S(=O)(Nc1cc(Cl)c(Oc2cnc3ccccc3c2)c(Cl)c1)c1ccc(Cl)cc1Cl [INT131] .
# output 4.3
